- PROTOCOL_DETAILS: folding stability dG unfold from trypsin proteolysis; higher = more stable
// Condition not met strictly below 0.6 kcal/mol in folding stability dG unfold; Condition met otherwise

stdin: In plain terms: is recorded folding stability dG unfold at least 0.6 kcal/mol for SAGGSAKLNITKILSVEFSEDGTIRIKVENENGELYELEIKVKVIPPPEKPEIDPKYLTPEDLEKYSAGGSA [r15_41_TrMRF] ?
stdout: Condition met

stdin: Same thing, different sequence: SAGGSAGGSAGMLWIHDPESGTLVMLHPKPDGEVNVQVWQFDPDNGKPEIKTVPADNIEASAGGSAGGSAGG [r11_285_TrROS]
stdout: Condition not met

stdin: Same thing, different sequence: SGFEVERVEVEADLDKPTVARFLLVNPDGQPIVALDPVVRLGEEALVLSVYRNPVDGELRVTARRIRLDGSA [r9_269_TrMRF]
stdout: Condition met

stdin: Same thing, different sequence: SAGGSAGGMKVKIKLGPGEEVEIEVVEDKETNKLYFKIVNKKTKKVYVFETLEEAKNMSLEELLSAGGSAGG [r6_739_TrROS_Hall]
stdout: Condition met

stdin: Same thing, different sequence: SAGAPSTREFEILELVPLPPGTTAEELRATLEREVELPDDSVARIRVRAVFLSPGPAFALVLYRVEVRESAG [r5_939_TrMRF]
stdout: Condition met

stdin: Same thing, different sequence: SAGSMLLIKITITFKDPNGNLLKTIPIEKEADPNDPEAIEKAKEEAEKLAEELLPEDELAEVKAEVLLLSAG [r5_793_JUSTAS]
stdout: Condition met

stdin: Same thing, different sequence: MKIEIEIEREEDRVIVRIKIERKDGKEIELELEVPSLEEALEAIEKILASLPPEEVKIVEIEIYNADGEKIS [r1_169_TrROS_Hall]
stdout: Condition met

stdin: Same thing, different sequence: SAGGSAGGSEEVEIRIVLPDMSEEELKAALEALLSEPGAEIEIVRVERREDGSLVVTVKVRVPSAGGSAGGS [r12_348_TrROS_Hall]
stdout: Condition met

stdin: Same thing, different sequence: SAGGKSIHIADATLEDLVDLIANLPEPVVIHVERPVTFPVLLLENGVVAAVRTETAPATLTLTIPPELSAGG [r13_632_TrMRF]
stdout: Condition not met

stdin: Same thing, different sequence: SAGGMTITVTVGPGKEEEAVEALKKKTGLKVELVETTPRPVRAPDGTVLEEVEEITIKITKPDPNLKESAGG [r13_943_JUSTAS]
stdout: Condition not met

stdin: Same thing, different sequence: SAGGSAGGSAGGGSFVLTRHTRTGLRRRVYFDPETGELTVELETGTESRTTLSPLSPDLSAGGSAGGSAGGS [r10_376_TrMRF]
stdout: Condition not met

stdin: Same thing, different sequence: SAGGSAGGPSPNQPERQQVQVEAKIRFPDPNGKEWTIEITAYGSVGDARDAARSLAREIKNGKISAGGSAGG [r6_944_TrROS]
stdout: Condition not met

stdin: Same thing, different sequence: SAGGSYRIEIEDIDPKPQWRPNPNGEWEPRPTLTIEVKIERNPDEMPEKEKQKIEEQAERIAKKFFSAGGSA [r2_40_TrROS]
stdout: Condition not met

stdin: Same thing, different sequence: SAGGSAGGSTLTVEIQITDADGNTLTAKVTLTFEPAPPPPPPPTVERRTTTVDGKTVTEYRRLSAGGSAGGS [r12_128_TrROS_Hall]
stdout: Condition met

====

- PROTOCOL_DETAILS: folding stability dG unfold from chymotrypsin proteolysis; higher = more stable
// no (0) strictly below 3 kcal/mol in folding stability dG unfold; yes (1) otherwise

stdin: In plain terms: is recorded folding stability dG unfold at least 3 kcal/mol for SKIRIEVPGETIEITVPPGATVEFDEETGEITITLPDGSKRTIRLPPNAKIEVVDGEIRITIRLPPPPEPSA [r9_653_TrROS_Hall] ?
stdout: no (0)

stdin: Same thing, different sequence: SAGERKVLVIENLTSEELIEAIREALEKSPPGLLILVPDPEKAEEIRRAFPGIPLVVLNRETGELVEVESAG [r5_391_TrMRF]
stdout: yes (1)

stdin: Same thing, different sequence: SAGGSAGGSAGMTLEELLRKAKPGQTLTLRVRVVERNEDGSLSEREFTFTFRLELKPEDLSAGGSAGGSAGG [r11_347_TrROS_Hall]
stdout: yes (1)

stdin: Same thing, different sequence: SAVIPLEELARKVAEELGLEPVEVLEVIPEEGVVVMRFEGAVIVVKVDPETGEAEVEIVVFDPETGKPVSAG [r14_270_TrMRF]
stdout: yes (1)

stdin: Same thing, different sequence: SAGGSAGGSAGGSPRHYYVEIEFPNGRKMSIPIESPEEALDYLEDHNYPIKDVELHPLKSAGGSAGGSAGGS [r4_213_TrROS]
stdout: no (0)

stdin: Same thing, different sequence: SAGGSAGGPFVLKFPDPKNMNKLQEAASDHGMNMNRNPEKGTHVINFGGNMLDELQELPGIEIVSAGGSAGG [r6_726_TrROS]
stdout: no (0)

stdin: Same thing, different sequence: SAGGSAGGGGSSMTIVDPKDVPFGQTFTVTTYAPGGKKISTTTLTVDVPPPVWRTDGNGKWFLESAGGSAGG [r6_487_JUSTAS]
stdout: no (0)

stdin: Same thing, different sequence: STRTLTVVVEAPTLEEALAAAKALAPPGWKVTVTVERREVVDPETGETRTVLVVTVTIEPAPPPPPAEEKSA [r9_962_TrROS_Hall]
stdout: yes (1)

stdin: Same thing, different sequence: SAGGMKVKKIPVIVKILRKKDKKPIKEIPALAYKVDDKIYLVFEKPKDIKIAKEIAEKTGLPIEIYPSAGGS [r16_327_TrMRF]
stdout: no (0)

stdin: Same thing, different sequence: SDPILEILKDAFQEFGIPVQVSIEPDPDGKRVIPIRIMSPKDMDENGMKMQEQTFPIKVNGKKWRVEISWSA [r9_489_TrROS]
stdout: no (0)

stdin: Same thing, different sequence: SKKKKPPKKTVTVVVKVKPGEKITLTLKNKDGKEIAKVEFTKLPEDEPLYIATVTLKDGKLTIKVTKLKPSA [r9_238_TrROS_Hall]
stdout: no (0)

stdin: Same thing, different sequence: SAGGSAGGMEVPPDQRVLVLDVEGTPEAIEAFAEELVRRGFDKPVAVVAVDPETGKVTIVVPEDSAGGSAGG [r6_652_TrMRF]
stdout: no (0)

stdin: Same thing, different sequence: SAGGITIVWQPGYFRIEFPGNGNTVPIPIPPDDPGRTLEEFADEFIDEMSERFGIPPPEDIKIEYYDSAGGS [r8_402_TrROS]
stdout: no (0)

stdin: Same thing, different sequence: SSVTIPFKITDPNTTIAEIAERVRELLPESLGELSVTVTFSDGTTLNVTPGENLSKYYSPDDELTITVDAPS [r1_56_JUSTAS]
stdout: no (0)

====

Provide the recorded folding stability dG unfold for the entries that follow.
- PROTOCOL_DETAILS: folding stability dG unfold (combined trypsin and chymotrypsin); higher = more stable
Record the value in kcal/mol, omitting the unit from your answer.

stdin: # lookup: folding stability dG unfold of SAGGNPDWIPIQVPFEDPGDQDAMKKLVEELADIFLDEGIKPIEVEHTNPGHYSVWIPFDGKSIRIHSAGGS [r16_703_TrROS]
stdout: -0.888

stdin: Same thing, different sequence: SAGGMKTVEIEIPVPPGMSIEELVKKLLEELKKKKDIKEVEIEITLKDGSKIKIRVNKNGKIVKVEKLSAGG [r13_690_TrROS_Hall]
stdout: 2.25

stdin: Same thing, different sequence: SAGGSATQVVLKITIKINKGEKEETREIVLPATDPEEAIAKVKKELKEKGIDAEIEELEILPVDLLSAGGSA [r15_165_JUSTAS]
stdout: 1.27

stdin: Same thing, different sequence: SAGGSIWIPIDSPEDVEEAIDFIQDFLAERGMPPGHDIKKIKVERMENGHYWVEIEFPGRKIYIWVSAGGSA [r2_120_TrROS]
stdout: 3.65

====

- PROTOCOL_DETAILS: folding stability dG unfold (combined trypsin and chymotrypsin); higher = more stable
// F strictly below 9 kJ/mol in folding stability dG unfold; T otherwise

stdin: In plain terms: is recorded folding stability dG unfold at least 9 kJ/mol for SAGGSAGGSAGMTRTVTFTITDPNSSNTTTITVPTTSEQDVAAAKAALKAANPNVTITLTSAGGSAGGSAGG [r11_233_JUSTAS] ?
stdout: F

stdin: Same thing, different sequence: SAGGSAGGSAGMEIEEEDGKLRLRLEAEFEVTVTTRNADGSTTETTARVRVELTFELPEESAGGSAGGSAGG [r17_103_TrROS_Hall]
stdout: T

stdin: Same thing, different sequence: SAGGSVEFEETITDPLKSLEEAKALAEEIEAELKAKGYKVTVTVTVVPPGSVTATITVTTDPAKGKKASAGG [r13_697_JUSTAS]
stdout: F

stdin: Same thing, different sequence: SAGGKKKKKKKKKKKKKVKVRVRIVVENKNGEKKEIEIELKGLTLEELKKLAKELEKKGFKVKKIEIESAGG [r13_227_TrROS_Hall]
stdout: T

stdin: Same thing, different sequence: SAGGSAGGSAGDDNKKKPKPKIEIQPVRMTMPFPENGLRIEIDIWVIKDGNIIFMIEWYPSAGGSAGGSAGG [r11_463_TrROS]
stdout: T

stdin: Same thing, different sequence: SMDFKENQSFYITEITDDEVTFIFNNKPYKFPKEFINSKDTIITIYNGKIKEIKKPKPLKLHPEEIKKLSSA [r9_842_TrMRF]
stdout: F

stdin: Same thing, different sequence: SAGGSMVIEAEIEFPDMTPEEVEERAEEIAEAAAEFARKKGFPIKKVEADVEVFPGEGVVKVTVTLEGSAGG [r13_212_TrMRF]
stdout: F

stdin: Same thing, different sequence: SAGGMKIEIELEDGYLRVKIYDKDGKLIEEIEIKIEKVEPPPEVEVELSPEELAKKLGVEIEIKEKESAGGS [r16_778_TrROS_Hall]
stdout: T

stdin: Same thing, different sequence: SAGGSAGGSAMQRDPDGKPQPQVTFRIPADDMPEEQIKKHLPPEFADNFRDNMPEGDTITLSAGGSAGGSAG [r3_326_TrROS]
stdout: F

stdin: Same thing, different sequence: SAGGSAMKIEEEEVEVPLSDEELEALKKNPGKTVKVKVIKIEIEMPEEEKKRLAKELEEKFNIKIESAGGSA [r15_347_TrROS_Hall]
stdout: F

stdin: Same thing, different sequence: SAGGSAGGSAGDEKYTLTVTIPVPKNAPVLVGAEKGYEVIDLNPDAPVEEGYITVKVEFGSAGGSAGGSAGG [r11_701_TrMRF]
stdout: F

stdin: Same thing, different sequence: SAGGSASVTTTVTLPNGEVVTITFDPANPTTATLSFPDGTTVTLSFSSPEEALARAIEELLAGKPLSAGGSA [r15_38_JUSTAS]
stdout: T

stdin: Same thing, different sequence: SAGMKPLSDPEAQELAKEVAEKGYLVYTLKYPDGTVITVVSKSEEEVEALLEKSPYPIKEIVIIPPEKPSAG [r5_481_JUSTAS]
stdout: F
